Overview of recorded pIC50 for various compounds
- Target Under Test: HSV polymerase (Human herpesvirus 1)
- Assay Notes: HSV polymerase assay (Table 1)
- Type: biochemical
- Stated Conditions: HSV polymerase; read-out: Polymerase IC50 HSV
To interpret pIC50, take it as minus log10 of a concentration measured in moles per litre.

Here's what some known entries look like.
- CN(Cc1cc2c(=O)c(C(=O)NCc3ccc(Cl)cc3)cn(C)c2s1)CC(O)c1c[nH]c2ccccc12 (racemic) [Example 11]: 6.70
- CN(Cc1cc2c(=O)c(C(=O)NCc3ccc(Cl)cc3)cn(C)c2s1)CC(O)c1cc2ccccc2n1C (racemic) [Example 14]: 6.28
- Cc1ccc(C(O)CN(C)Cc2cc3c(=O)c(C(=O)NCc4ccc(Cl)cc4)cn(C)c3s2)o1 (racemic) [Example 3]: 6.59
- CN(Cc1cc2c(=O)c(C(=O)NCc3ccc(Cl)cc3)cn(C)c2s1)CC(O)c1ccoc1 (racemic) [Example 4]: 6.08
- CCn1cc(C(=O)NCc2ccc(Cl)cc2)c(=O)c2cc(CN(C)CC(O)c3cc4ccccc4o3)sc21 (racemic) [Example 22]: 6.77

Determine from records and report pIC50 for CN(Cc1cc2c(=O)c(C(=O)NCc3ccc(Cl)cc3)cn(C)c2s1)CC(O)c1ccco1 (racemic) [Example 1]
6.66

Read off the recorded pIC50 for CCCn1cc(C(=O)NCc2ccc(Cl)cc2)c(=O)c2cc(CN(C)C[C@@H](O)c3ccco3)sc21 [Example 32]
6.13

###

- Target Under Test: HCMV polymerase (Human cytomegalovirus, UniProt P08546)
- Construct: made in house; host or cells: recombinant baculovirus-infected SF-9 cells
- Sequence (P08546 whole entry): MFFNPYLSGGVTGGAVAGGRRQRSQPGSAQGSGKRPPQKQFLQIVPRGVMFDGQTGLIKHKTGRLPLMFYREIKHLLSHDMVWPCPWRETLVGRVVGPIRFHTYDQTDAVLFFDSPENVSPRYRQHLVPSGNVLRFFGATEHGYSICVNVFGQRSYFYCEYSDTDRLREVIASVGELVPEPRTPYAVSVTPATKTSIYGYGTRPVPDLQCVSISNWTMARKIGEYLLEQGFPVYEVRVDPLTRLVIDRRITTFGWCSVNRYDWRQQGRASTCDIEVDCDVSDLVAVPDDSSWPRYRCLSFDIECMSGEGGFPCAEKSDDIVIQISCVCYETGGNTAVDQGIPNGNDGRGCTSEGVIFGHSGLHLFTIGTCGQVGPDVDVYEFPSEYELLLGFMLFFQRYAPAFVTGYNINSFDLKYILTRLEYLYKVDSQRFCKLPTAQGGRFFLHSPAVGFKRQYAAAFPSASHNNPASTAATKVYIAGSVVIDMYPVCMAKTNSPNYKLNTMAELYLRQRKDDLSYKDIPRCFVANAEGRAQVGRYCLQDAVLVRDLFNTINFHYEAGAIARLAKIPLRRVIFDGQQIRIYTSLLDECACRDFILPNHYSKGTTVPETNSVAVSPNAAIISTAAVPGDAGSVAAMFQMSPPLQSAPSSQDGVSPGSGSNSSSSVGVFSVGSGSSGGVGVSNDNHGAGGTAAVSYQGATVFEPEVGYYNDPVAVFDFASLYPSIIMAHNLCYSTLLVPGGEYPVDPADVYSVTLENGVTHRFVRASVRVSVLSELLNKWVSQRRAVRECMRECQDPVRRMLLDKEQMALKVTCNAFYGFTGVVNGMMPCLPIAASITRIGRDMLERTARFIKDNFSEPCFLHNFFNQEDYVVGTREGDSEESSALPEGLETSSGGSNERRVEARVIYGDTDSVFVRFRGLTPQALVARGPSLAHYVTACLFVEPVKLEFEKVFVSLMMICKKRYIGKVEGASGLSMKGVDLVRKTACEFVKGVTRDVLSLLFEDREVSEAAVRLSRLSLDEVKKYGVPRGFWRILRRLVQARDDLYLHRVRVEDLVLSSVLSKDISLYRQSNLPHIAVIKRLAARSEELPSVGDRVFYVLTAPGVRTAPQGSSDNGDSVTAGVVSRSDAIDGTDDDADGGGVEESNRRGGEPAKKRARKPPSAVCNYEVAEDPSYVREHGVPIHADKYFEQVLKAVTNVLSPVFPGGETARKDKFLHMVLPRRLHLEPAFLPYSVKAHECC
- Assay Notes: HCMV polymerase scintillation proximity assay (SPA)
- Assay type: biochemical
- Stated Conditions: HCMV polymerase, SPA; read-out: Polymerase IC50 HCMV
Measure Name: IC50 (nM)
Answer in nM, number only, no unit symbol.

* CN(Cc1cc2c(=O)c(C(=O)NCc3ccc(Cl)cc3)cn(C)c2s1)CC(O)c1cn(C)cn1 (racemic) | 1060
* CCCn1cc(C(=O)NCc2ccc(Cl)cc2)c(=O)c2cc(CN(C)C[C@@H](O)c3ccco3)sc21 | 180

Give the value of IC50 reported for the following: CN(Cc1cc2c(=O)c(C(=O)NCc3ccc(Cl)cc3)cn(C)c2s1)CC(O)c1ccco1 (racemic)
80

Recall and state the measured IC50 for CN(Cc1cc2c(=O)c(C(=O)NCc3ccc(Cl)cc3)cn(C)c2s1)CC(O)c1ncc[nH]1 (racemic) .
830

Could you please provide reported IC50 for CN(Cc1cc2c(=O)c(C(=O)NCc3ccc(Cl)cc3)cn(CC(O)CO)c2s1)CC(O)c1cc2ccccc2o1 (racemic) ? Thanks!
1800

Entry CN(Cc1cc2c(=O)c(C(=O)NCc3ccc(Cl)cc3)cn(C)c2s1)CC(O)c1ccc(-c2ccccc2)o1 (racemic) needs its IC50 filled in; supply it.
70

State its IC50 for this molecule: CN(Cc1cc2c(=O)c(C(=O)NCc3ccc(Cl)cc3)cn(C)c2s1)CC(O)c1nc2ccccc2s1 (racemic)
120

Entry Cc1cc(C(O)CN(C)Cc2cc3c(=O)c(C(=O)NCc4ccc(Cl)cc4)cn(C)c3s2)c(C)o1 (racemic) needs its IC50 filled in; supply it.
280

Give recorded IC50. CN(Cc1cc2c(=O)c(C(=O)NCc3ccc(Cl)cc3)cn(C)c2s1)CC(O)c1csc2ccccc12 (racemic)
170

Give me measured IC50, please, for this molecule: CN(Cc1cc2c(=O)c(C(=O)NCc3ccc(Cl)cc3)cn(C)c2s1)CC(O)c1cc2ccccc2n1C (racemic)
100

Provide measured IC50 value, entry: CN(Cc1cc2c(=O)c(C(=O)NCc3ccc(Cl)cc3)cn(C)c2s1)CC(O)c1cccs1 (racemic)
170

Retrieve IC50 measured for Cc1ccc(C(O)CN(C)Cc2cc3c(=O)c(C(=O)NCc4ccc(Cl)cc4)cn(C)c3s2)o1 (racemic) and print it.
70

Kindly indicate its recorded IC50. Item: CN(Cc1cc2c(=O)c(C(=O)NCc3ccc(Cl)cc3)cn(C)c2s1)CC(O)c1cccn1C (racemic)
260

Quickly give me recorded IC50 for CN(Cc1cc2c(=O)c(C(=O)NCc3ccc(Cl)cc3)cn(C)c2s1)C[C@@H](O)c1ccco1
40

Assign IC50 to the following record: CN(Cc1cc2c(=O)c(C(=O)NCc3ccc(Cl)cc3)cn(C)c2s1)CC(O)c1c[nH]c2ccccc12 (racemic)
90

###

Recorded IC50 for the following compounds
- Target Under Test: HCMV polymerase (Human cytomegalovirus, UniProt P08546)
- Construct: made in house; host or cells: recombinant baculovirus-infected SF-9 cells
- Assay Notes: HCMV polymerase scintillation proximity assay (SPA)
- Format: biochemical
- Stated Conditions: HCMV polymerase, SPA; read-out: Polymerase IC50 HCMV
Give the number; nM is assumed, so skip it.

- CN(Cc1cc2c(=O)c(C(=O)NCc3ccc(Cl)cc3)cn(C)c2s1)CC(O)c1cc2ccccc2o1 (racemic): 10
- CCn1cc(C(=O)NCc2ccc(Cl)cc2)c(=O)c2cc(CN(C)C[C@@H](O)c3ccco3)sc21: 220

Report IC50 for CN(Cc1cc2c(=O)c(C(=O)NCc3ccc(Cl)cc3)cn(C)c2s1)CC(O)c1c[nH]cn1 (racemic)
450

Specify reported IC50 for the compound shown: CN(Cc1cc2c(=O)c(C(=O)NCc3ccc(Cl)cc3)cn(C)c2s1)CC(O)c1ccc(Cl)o1 (stereo not shown)
20

###

- Target Under Test: HSV polymerase (Human herpesvirus 1, UniProt P04293)
- Sequence (P04293 whole entry): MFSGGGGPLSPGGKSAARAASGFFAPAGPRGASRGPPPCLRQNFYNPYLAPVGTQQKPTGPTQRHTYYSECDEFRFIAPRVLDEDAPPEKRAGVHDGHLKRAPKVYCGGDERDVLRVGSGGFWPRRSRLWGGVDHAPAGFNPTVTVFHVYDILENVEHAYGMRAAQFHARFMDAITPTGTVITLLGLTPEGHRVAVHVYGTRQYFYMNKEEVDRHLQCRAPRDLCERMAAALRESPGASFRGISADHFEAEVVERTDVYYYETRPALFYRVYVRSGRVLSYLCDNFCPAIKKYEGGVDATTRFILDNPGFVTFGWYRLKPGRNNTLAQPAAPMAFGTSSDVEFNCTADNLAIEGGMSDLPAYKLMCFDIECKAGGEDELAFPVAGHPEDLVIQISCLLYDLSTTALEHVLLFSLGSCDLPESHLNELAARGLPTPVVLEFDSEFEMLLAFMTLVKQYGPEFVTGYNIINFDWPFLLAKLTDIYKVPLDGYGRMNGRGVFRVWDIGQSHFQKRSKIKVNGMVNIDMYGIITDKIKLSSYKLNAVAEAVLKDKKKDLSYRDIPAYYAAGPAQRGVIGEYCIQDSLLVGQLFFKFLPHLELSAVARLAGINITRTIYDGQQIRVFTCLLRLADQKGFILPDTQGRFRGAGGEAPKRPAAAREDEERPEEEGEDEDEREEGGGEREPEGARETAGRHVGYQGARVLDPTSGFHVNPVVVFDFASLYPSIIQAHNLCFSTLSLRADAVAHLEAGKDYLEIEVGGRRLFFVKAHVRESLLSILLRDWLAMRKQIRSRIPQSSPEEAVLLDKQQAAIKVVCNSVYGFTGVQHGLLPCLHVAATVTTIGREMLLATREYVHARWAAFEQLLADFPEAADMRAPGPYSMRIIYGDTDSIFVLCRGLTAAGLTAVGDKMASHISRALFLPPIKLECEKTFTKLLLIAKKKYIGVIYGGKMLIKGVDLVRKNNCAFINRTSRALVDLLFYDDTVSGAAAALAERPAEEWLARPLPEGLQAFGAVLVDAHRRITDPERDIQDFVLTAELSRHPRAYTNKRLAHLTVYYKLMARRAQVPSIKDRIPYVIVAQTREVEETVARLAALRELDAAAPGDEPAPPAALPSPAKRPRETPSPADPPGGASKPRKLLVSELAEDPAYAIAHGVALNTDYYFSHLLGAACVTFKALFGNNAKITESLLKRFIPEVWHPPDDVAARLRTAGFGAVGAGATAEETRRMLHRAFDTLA
- Assay Notes: HSV polymerase assay (Table 1)
- Format: biochemical
- Stated Conditions: HSV polymerase; read-out: Polymerase IC50 HSV
Binary label based on IC50 with cut-off 400 nM: below gives t, not below gives f.

Here's what some known entries look like.
• CN(Cc1cc2c(=O)c(C(=O)NCc3ccc(Cl)cc3)cn(C)c2s1)CC(O)c1cc2ccccc2o1 (racemic) [Example 5] = t
• CN(Cc1cc2c(=O)c(C(=O)NCc3ccc(Cl)cc3)cn(C)c2s1)CC(O)c1nccs1 (racemic) [Example 16] = f
• Cc1cc(C(O)CN(C)Cc2cc3c(=O)c(C(=O)NCc4ccc(Cl)cc4)cn(C)c3s2)oc1C (racemic) [Example 30] = f
• CN(Cc1cc2c(=O)c(C(=O)NCc3ccc(Cl)cc3)cn(C)c2s1)C[C@@H](O)c1ccn[nH]1 (single isomer, unassigned) [Example 19] = f
• CN(Cc1cc2c(=O)c(C(=O)NCc3ccc(Cl)cc3)cn(C)c2s1)CC(O)c1ccc(Cl)o1 (centres unmarked) [Example 33] = t
• CN(Cc1cc2c(=O)c(C(=O)NCc3ccc(Cl)cc3)cn(C)c2s1)CC(O)c1c[nH]cn1 (racemic) [Example 10] = f

Please indicate whether the reported IC50 of CN(Cc1cc2c(=O)c(C(=O)NCc3ccc(Cl)cc3)cn(CCO)c2s1)C[C@@H](O)c1ccco1 [Example 34] is strictly below 400 nM.
f

Does CN(Cc1cc2c(=O)c(C(=O)NCc3ccc(Cl)cc3)cn(C)c2s1)CC(O)c1ccn[nH]1 (racemic) [Example 18] have IC50 strictly under 400 nM?
f

Is IC50 strictly under 400 nM for the entry CN(Cc1cc2c(=O)c(C(=O)NCc3ccc(Cl)cc3)cn(C)c2s1)C[C@@H](O)c1ccco1 [Example 2] ?
t

Please check: IC50 for CN(Cc1cc2c(=O)c(C(=O)NCc3ccc(Cl)cc3)cn(C)c2s1)CC(O)c1ccc(-c2ccccc2)o1 (racemic) [Example 31] , strictly under 400 nM or not?
t

State whether 400 nM exceeds IC50 recorded for CN(Cc1cc2c(=O)c(C(=O)NCc3ccc(Cl)cc3)cn(C)c2s1)CC(O)c1cccn1C (racemic) [Example 8] .
f

Hello, I'm reviewing records and need to know if IC50 of CN(Cc1cc2c(=O)c(C(=O)NCc3ccc(Cl)cc3)cn(CC(O)CO)c2s1)C[C@@H](O)c1ccco1 (some centres unmarked) [Example 26] is below 400 nM. Could you check?
f

Problem: For the molecule CCn1cc(C(=O)NCc2ccc(Cl)cc2)c(=O)c2cc(CN(C)C[C@@H](O)c3ccco3)sc21 [Example 20] , is IC50 under 400 nM?
f

###

- Target Under Test: VZV polymerase (Varicella-zoster virus)
- Sequence (P09252 whole entry): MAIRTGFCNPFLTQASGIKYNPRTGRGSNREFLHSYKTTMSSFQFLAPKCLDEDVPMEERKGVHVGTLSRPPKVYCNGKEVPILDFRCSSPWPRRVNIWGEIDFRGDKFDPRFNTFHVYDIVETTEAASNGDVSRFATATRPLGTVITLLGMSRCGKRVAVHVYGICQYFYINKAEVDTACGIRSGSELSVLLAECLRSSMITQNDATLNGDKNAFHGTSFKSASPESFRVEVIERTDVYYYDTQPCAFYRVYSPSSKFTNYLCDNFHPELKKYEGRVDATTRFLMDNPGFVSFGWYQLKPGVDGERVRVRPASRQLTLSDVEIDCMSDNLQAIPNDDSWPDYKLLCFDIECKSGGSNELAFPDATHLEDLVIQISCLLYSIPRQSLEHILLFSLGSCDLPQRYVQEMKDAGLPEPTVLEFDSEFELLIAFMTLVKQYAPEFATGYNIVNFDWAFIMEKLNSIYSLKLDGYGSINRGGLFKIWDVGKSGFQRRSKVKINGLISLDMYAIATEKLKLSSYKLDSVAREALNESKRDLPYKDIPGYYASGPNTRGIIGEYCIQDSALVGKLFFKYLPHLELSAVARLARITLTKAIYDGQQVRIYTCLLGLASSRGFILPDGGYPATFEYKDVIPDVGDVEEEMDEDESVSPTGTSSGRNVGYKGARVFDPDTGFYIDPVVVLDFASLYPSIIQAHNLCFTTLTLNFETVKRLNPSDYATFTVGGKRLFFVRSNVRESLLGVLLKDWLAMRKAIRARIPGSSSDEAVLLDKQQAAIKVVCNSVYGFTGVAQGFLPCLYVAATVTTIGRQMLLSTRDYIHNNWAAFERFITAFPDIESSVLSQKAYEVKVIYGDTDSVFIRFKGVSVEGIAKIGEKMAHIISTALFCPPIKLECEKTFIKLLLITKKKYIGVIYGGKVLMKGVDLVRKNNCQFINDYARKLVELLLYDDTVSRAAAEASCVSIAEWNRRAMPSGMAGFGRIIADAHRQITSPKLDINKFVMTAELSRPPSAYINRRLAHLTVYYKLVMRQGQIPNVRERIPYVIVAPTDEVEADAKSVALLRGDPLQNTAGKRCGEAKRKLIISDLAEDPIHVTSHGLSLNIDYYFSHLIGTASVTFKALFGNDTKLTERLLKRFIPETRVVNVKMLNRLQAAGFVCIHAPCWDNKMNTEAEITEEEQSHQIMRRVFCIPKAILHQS
- Assay Notes: VZV polymerase assay (Table 1)
- Format: biochemical
- Stated Conditions: VZV polymerase; read-out: Polymerase IC50 VZV
Measure Name: IC50 (µM)
Give a bare numeral; the unit µM is implied.

See these solved cases before continuing.
- CN(Cc1cc2c(=O)c(C(=O)NCc3ccc(Cl)cc3)cn(CC(O)CO)c2s1)C[C@@H](O)c1ccco1 (some centres unmarked): 0.33
- CN(Cc1cc2c(=O)c(C(=O)NCc3ccc(Cl)cc3)cn(C)c2s1)C[C@@H](O)c1ccco1: 0.03
- CN(Cc1cc2c(=O)c(C(=O)NCc3ccc(Cl)cc3)cn(C)c2s1)CC(O)c1cccn1C (racemic): 0.32
- CN(Cc1cc2c(=O)c(C(=O)NCc3ccc(Cl)cc3)cn(C)c2s1)CC(O)c1cc2ccccc2n1C (racemic): 0.12

Consider the molecule CN(Cc1cc2c(=O)c(C(=O)NCc3ccc(Cl)cc3)cn(C)c2s1)CC(O)c1cccs1 (racemic) and give its recorded IC50.
0.15

Report measured IC50; entry is CCCn1cc(C(=O)NCc2ccc(Cl)cc2)c(=O)c2cc(CN(C)C[C@@H](O)c3ccco3)sc21
0.22

Specify IC50 for CN(Cc1cc2c(=O)c(C(=O)NCc3ccc(Cl)cc3)cn(C)c2s1)CC(O)c1cc2ccccc2o1 (racemic) and stop.
0.01

Annotate the molecule CN(Cc1cc2c(=O)c(C(=O)NCc3ccc(Cl)cc3)cn(C)c2s1)CC(O)c1ccoc1 (racemic) with its measured IC50.
0.39

Provenance of the data: patent US20050049245A1
